B1: EIF5 (parent)
chain: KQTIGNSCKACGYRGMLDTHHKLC

variants of: B1; test: protein stability index of a GFP-peptide fusion (GPS, HEK-293T) (PSI 1-6); higher = more stable; settings: c terminus: a fixed tail appended;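 note: lentivirally expressed fusions sorted by FACS into six bins by GFP to DsRed ratio, PSI derived from sequencing read proportions per bin multiplied by bin number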
PROPERTY_NAME: protein stability index
// response body must contain only the number

1. I4R; 3.31

Provide one value: measured protein stability index of "R14I"
3.33

Give recorded protein stability index. "T3Q"
3.06

For the variant "C24H" , report protein stability index.
1.9

For the variant "M16Y" , give its reported protein stability index.
2.98

Write down protein stability index measured for item "C8L"
3.05

Determine its reported protein stability index: "A10F"
4.01

Name the recorded protein stability index of the item "T3W" in your answer.
2.46

Provide only the value of recorded protein stability index for "R14L"
2.96

Please report the measured protein stability index for "H21E"
3.21

Answer with the recorded protein stability index of "C8P" only.
1.88
